The values you see were collected from ChEMBL document CHEMBL4265969.

# method-description: Half life in Sprague-Dawley rat at 2 mg/kg, iv
# Type: ADME, organism-based
# settings: in vivo
measured-metric: half-life (min)
Write it as a number; the unit min goes unstated.

Cc1cc(O)c([C@@H]2O[C@H](CO)[C@@H](F)[C@H](O)[C@H]2O)cc1Cc1cc2c(s1)CCN(C#N)C2    59.4

Form field: reported half-life of COc1c([C@@H]2O[C@H](CO)[C@@H](F)[C@H](O)[C@H]2O)cc(Cc2ccc3c(c2)OCCO3)c2c1CCO2
24.6

Returns the measured half-life for the input compound. Input: OC[C@H]1O[C@@H](c2cc(Cc3ccc4c(c3)OCCO4)c3c(c2O)CCO3)[C@H](O)[C@@H](O)[C@@H]1F
18.6
